Origin of values: the supplement of paper PMC3545927

- target: furin, P09958;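 also: purified furin at 1:10 enzyme:substrate in 50 mM HEPES pH 7.5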
- Sequence (P09958 whole entry): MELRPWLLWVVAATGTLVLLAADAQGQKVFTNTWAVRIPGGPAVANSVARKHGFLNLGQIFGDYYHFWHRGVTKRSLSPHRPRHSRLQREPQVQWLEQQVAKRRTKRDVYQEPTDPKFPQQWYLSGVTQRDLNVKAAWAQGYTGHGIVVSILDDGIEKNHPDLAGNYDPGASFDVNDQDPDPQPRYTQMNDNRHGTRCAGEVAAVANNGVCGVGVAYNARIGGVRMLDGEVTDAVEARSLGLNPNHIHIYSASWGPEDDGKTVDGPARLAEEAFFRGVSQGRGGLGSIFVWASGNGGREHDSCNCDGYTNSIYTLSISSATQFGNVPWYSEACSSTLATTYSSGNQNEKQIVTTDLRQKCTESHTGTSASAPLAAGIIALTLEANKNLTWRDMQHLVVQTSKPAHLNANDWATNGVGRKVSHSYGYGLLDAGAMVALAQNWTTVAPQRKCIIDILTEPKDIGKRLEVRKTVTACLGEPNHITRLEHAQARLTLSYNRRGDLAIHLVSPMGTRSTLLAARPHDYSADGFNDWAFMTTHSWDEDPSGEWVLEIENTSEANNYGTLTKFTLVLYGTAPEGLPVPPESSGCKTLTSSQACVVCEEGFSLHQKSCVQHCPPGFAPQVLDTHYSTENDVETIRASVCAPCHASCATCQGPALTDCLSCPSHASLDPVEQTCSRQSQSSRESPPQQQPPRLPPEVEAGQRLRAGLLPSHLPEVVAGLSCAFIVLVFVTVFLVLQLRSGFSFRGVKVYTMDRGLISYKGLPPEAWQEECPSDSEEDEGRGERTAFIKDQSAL
- protocol_details: furin cleavage Z-score vs untreated control; higher = more cleavage, active = 3.5 or more, inactive = 1 or less, 8 variable residues between constant flanks
- applied_conditions: 15 min
Some of the results follow. How many sequences the whole screen found active is unknown.
Listed here are sequences together with their documented furin cleavage Z-score.
experimental_endpoint: furin cleavage Z-score

{"sequence_string": "CAAARALAHGAGNASASA [HC234]", "experimental_value": "-0.81 (inactive)"}
{"sequence_string": "CAWEECSQHLAGNASASA [HC1668]", "experimental_value": "0.743 (inactive)"}
{"sequence_string": "CATNLRIKRDAGNASASA [FS-568]", "experimental_value": "15.3 (active)"}
{"sequence_string": "CAETRRERRRAGNASASA [FS-1121]", "experimental_value": "4.13 (active)"}
{"sequence_string": "CAEVATSTWVAGNASASA [HC2183]", "experimental_value": "-1.35 (inactive)"}
{"sequence_string": "CAITAEAAGRAGNASASA [HC1251]", "experimental_value": "-1.39 (inactive)"}
{"sequence_string": "CAAKSRPVRDAGNASASA [FS-522]", "experimental_value": "8.99 (active)"}
{"sequence_string": "CALRRRLKRRAGNASASA [FS-361]", "experimental_value": "7.31 (active)"}
{"sequence_string": "CARFLRHTGRAGNASASA [FS-1701]", "experimental_value": 1.08}
{"sequence_string": "CARYKRWRKHAGNASASA [FS-2112]", "experimental_value": "6.03 (active)"}
{"sequence_string": "CAESVTSTWVAGNASASA [HC2177]", "experimental_value": "-0.0286 (inactive)"}
{"sequence_string": "CAEYTTPCSGAGNASASA [HC1969]", "experimental_value": "-0.366 (inactive)"}
{"sequence_string": "CAEVVTSTAVAGNASASA [HC2223]", "experimental_value": 1.73}
{"sequence_string": "CALETFWAKHAGNASASA [HC1039]", "experimental_value": "-0.375 (inactive)"}
{"sequence_string": "CADLVGWPAPAGNASASA [HC714]", "experimental_value": "-0.464 (inactive)"}
